Assay: Inhibition of Pseudomonas aeruginosa DHFR
pIC50: −log10 of the molar value.
Would you mind labelling by pIC50? At or over 3 is yes (1), under is no (0).

Here are 5 compounds together with their reported answers.
{"record smiles": "O=c1c(O)c(-c2ccc(O)c(O)c2)oc2cc(O)cc(O)c12", "cat": "yes (1)"}
{"record smiles": "Cc1cc(NS(=O)(=O)c2ccc(N)cc2)no1", "cat": "yes (1)"}
{"record smiles": "O=C(O)c1ccc(O)c(O)c1", "cat": "no (0)"}
{"record smiles": "O=C(O)c1cc(O)c(O)c(O)c1", "cat": "no (0)"}
{"record smiles": "O=c1c(O)c(-c2cc(O)c(O)c(O)c2)oc2cc(O)cc(O)c12", "cat": "yes (1)"}

Attention now turns to another entry.
I'd appreciate it if you could say whether "COc1cc(Cc2cnc(N)nc2N)cc(OC)c1OC" has pIC50 at least equal to 3.
yes (1)

---

Provide the recorded pIC50 for the entries that follow.
Test: Inhibition of Staphylococcus aureus DHFR F98Y mutant
Numbers only, as −log10 of the molar value.

Examples with answers:
{"record smiles": "CCc1nc(N)nc(N)c1C#C[C@@H](C)c1cc(OC)cc(-c2ccncc2)c1", "measurement kind": "pIC50", "assay value": 6.95}
{"record smiles": "CCC[C@H]1c2ccccc2C=NN1C(=O)/C=C/c1cc(Cc2cnc(N)nc2N)cc(OC)c1OC", "measurement kind": "pIC50", "assay value": 8.74}

Now examine the next entry.
Quick one: pIC50 of "CCc1nc(N)nc(N)c1C#C[C@H](C)c1cc(OC)cc(-c2ccncc2)c1" ?
6.29

---

Biological target: Dihydrofolate reductase (Mycobacterium tuberculosis)
Sequence (P9WNX1 whole entry): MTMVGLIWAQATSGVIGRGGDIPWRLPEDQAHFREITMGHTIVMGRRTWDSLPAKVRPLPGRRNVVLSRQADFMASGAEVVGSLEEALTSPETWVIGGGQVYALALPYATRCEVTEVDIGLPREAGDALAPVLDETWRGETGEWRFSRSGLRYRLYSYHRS
Provide the recorded pIC50 for the entries that follow.
Give bare numbers, as −log10 of the molar value.

{"compound": "O=c1[nH]c(=O)c2c(ncn2Cc2ccccc2)[nH]1", "pIC50": 4.41}
{"compound": "COc1ccc(-c2nc3ccccc3c(=O)[nH]2)cc1", "pIC50": 4.31}
{"compound": "Nc1nc(N)c2c(ccc3c2ccn3Cc2ccc3ccccc3c2)n1", "pIC50": 9.02}

Now examine the next entry.
Quick one: pIC50 of O=C(O[C@@H]1Cc2c(O)cc(O)cc2O[C@@H]1c1cc(O)c(O)c(O)c1)c1cc(O)c(O)c(O)c1 [EPIGALOCATECHIN GALLATE] ?
4.96
